The values you see were collected from PubChem BioAssay (Tox21).

# PROCEDURE_TEXT: qHTS assay to test for compound auto fluorescence at 535 nm (green) in HepG2 cells (AID 720675)
# EXPERIMENTAL_SETUP: green autofluorescence 485/535 nm, 1 h; series mostly up to 46 µM
# Source text: National Center for Advancing Translational Sciences [NCATS] NIH Chemical Genomics Center [NCGC] U.S. Environmental Protection Agency [EPA] National Institutes of Environmental Health Sciences [NIEHS] National Toxicology Program [NTP] U.S. Food and Drug Administration [FDA] Compound auto fluorescence often interferes with screening of the compound library against various biological targets and signaling pathways. Some of these compounds may have fluorophoric properties. […]
Activity calls are given as the source filed them. The call rests on the fitted dose curve; in most records, active means well fitted curve in the direction sought with a large enough effect in the repeat runs; inconclusive means weak or mixed curves; inactive means flat fitted curve, though single readings scatter.
Choose one outcome from this list and give only that: Yes = active, No = inactive

Examples with answers:
{"columns": ["MOLECULE", "ANSWER_LABEL"],
 "data": [
  ["COc1cc(/C=C/C(=O)CC(=O)/C=C/c2ccc(O)c(OC)c2)ccc1O", "No"],
  ["CCN1CCCC1CNC(=O)c1cc(S(=O)(=O)CC)ccc1OC (centres undefined)", "No"],
  ["C=C1[C@H](CO)[C@@H](O)C[C@@H]1n1cnc2c(=O)[nH]c(N)nc21", "No"]
]}

Task: Test call for this molecule, please: FC(F)(F)C(F)(F)C(F)(F)C(F)(F)C(F)(F)F
Output: No

Task: Test call for this molecule, please: CN1C(C(=O)Nc2ccccn2)C(=O)c2sc(Cl)cc2S1(=O)=O (centres undefined)
Output: No

Task: Test call for this molecule, please: CCC[C@@H]1C[C@@H](C(=O)N[C@@H]([C@H]2O[C@H](SC)[C@H](OP(=O)(O)O)[C@@H](O)[C@H]2O)[C@H](C)Cl)N(C)C1
Output: No

Task: Test call for this molecule, please: CON=C1C[C@]2(C[C@@H]3C[C@@H](C/C=C(\C)C[C@@H](C)/C=C/C=C4\CO[C@@H]5[C@H](O)C(C)=C[C@@H](C(=O)O3)[C@]45O)O2)O[C@H](/C(C)=C/C(C)C)[C@H]1C
Output: No

Task: Test call for this molecule, please: NC(=O)[C@@H]1CCCN1C(=O)[C@H](Cc1cnc[nH]1)NC(=O)[C@@H]1CCC(=O)N1
Output: No

Task: Test call for this molecule, please: Nc1ccc(N)c([N+](=O)[O-])c1
Output: No

Task: Test call for this molecule, please: CC(C)Cc1ccc([C@H](C)C(=O)O)cc1
Output: No

Task: Test call for this molecule, please: CCOc1ccc(S(=O)(=O)O)c2cccnc12
Output: No

Task: Test call for this molecule, please: CCOC(=O)COc1ccc2c(=O)cc(-c3ccccc3)oc2c1
Output: No

Task: Test call for this molecule, please: CCCCCCCCCCCCN1CCCC1=O
Output: No

Task: Test call for this molecule, please: COC(=O)C[C@](O)(CCCC(C)(C)O)C(=O)O[C@@H]1C(OC)=CC23CCCN2CCc2cc4c(cc2[C@H]13)OCO4 (some centres undefined)
Output: No

Task: Test call for this molecule, please: CN1CCN(CCCN2c3ccccc3Sc3ccc(C(F)(F)F)cc32)CC1
Output: No

Task: Test call for this molecule, please: Cc1onc(-c2c(F)cccc2Cl)c1C(=O)N[C@@H]1C(=O)N2[C@@H]1SC(C)(C)[C@@H]2C(=O)O
Output: No

Task: Test call for this molecule, please: C[Se]CC[C@H](N)C(=O)O
Output: No

Task: Test call for this molecule, please: CCCCCCCCCC[N+](C)(CCCCCCCCCC)CCC[Si](OC)(OC)OC
Output: No

Task: Test call for this molecule, please: SC1CCCCC1
Output: No

Task: Test call for this molecule, please: CC1=C(/C=C/C(C)=C/C=C/C(C)=C/C=C/C=C(C)/C=C/C=C(C)/C=C/C2=C(C)CCCC2(C)C)C(C)(C)CCC1
Output: No

Task: Test call for this molecule, please: COc1cc2c(c(OC)c1OC)-c1c(cc3c(c1OC)OCO3)C[C@@H](C)[C@](C)(O)C2
Output: No

Task: Test call for this molecule, please: C[C@@H]1C[C@H]2[C@@H]3C[C@H](F)C4=CC(=O)C=C[C@]4(C)[C@@]3(Cl)[C@@H](O)C[C@]2(C)[C@H]1C(=O)COC(=O)C(C)(C)C
Output: No

Task: Test call for this molecule, please: CCC(C)(C)c1ccc(CC(C)CN2C[C@@H](C)O[C@@H](C)C2)cc1 (some centres undefined)
Output: No

Task: Test call for this molecule, please: CSCC[C@H](NC(=O)[C@H](Cc1ccc(OS(=O)(=O)O)cc1)NC(=O)[C@@H](N)CC(=O)O)C(=O)NCC(=O)N[C@@H](Cc1c[nH]c2ccccc12)C(=O)N[C@@H](CCSC)C(=O)N[C@@H](CC(=O)O)C(=O)N[C@@H](Cc1ccccc1)C(N)=O
Output: No

Task: Test call for this molecule, please: CC12CCC(C1)C(C)(C)C2=O (centres undefined)
Output: No

Task: Test call for this molecule, please: CCN1\C(=C/C=C/C=C/c2sc3ccccc3[n+]2CC)Sc2ccccc21
Output: No
